Tested on: Vero E6
experiment_notes: drug sensitivity score (DSS) for viability; higher = more toxic; extreme values may be limits of the assay
setup_conditions: 72 h
Where a name gives a salt, the structure may show the parent alone.
Below, each entry is listed with its recorded drug sensitivity score.

Here is how some compounds turned out for drug sensitivity score.
compound	drug sensitivity score
C=C[C@]1(C)CC[C@@H](C(=C)C)C[C@H]1C(=C)C [beta-elemene]	0
CO/N=C(\C(=O)N[C@@H]1C(=O)N2C(C(=O)O)=C(COC(N)=O)CS[C@H]12)c1ccco1 [CEFUROXIME SODIUM]	0
Clc1cccc(SC2CCNCC2)n1 [anpirtoline]	0
c1ccc(-c2cnn3cc(-c4ccc(OCCN5CCOCC5)cc4)cnc23)cc1 [DMH4]	0
O=c1n(CC2CO2)c(=O)n(CC2CO2)c(=O)n1CC1CO1 (configuration not stated) [teroxirone]	0.4
COc1ccc(CNC(=O)Nc2ncc([N+](=O)[O-])s2)cc1	0
c1ccc2c(c1)OC[C@H](CNCCCOc1ccc3c(c1)OCO3)O2 [osemozotan]	0
CC/C(=C(\c1ccc(O)cc1)c1ccc(OCCNC)cc1)c1ccccc1 [Endoxifen HCl]	0
O=C(O)CCCc1c[nH]c2ccccc12 [3-indolebutyric-acid]	0
CCSc1ccc2c(c1)N(CCCN1CCN(C)CC1)c1ccccc1S2 [thiethylperazine]	0.3

Let me know recorded drug sensitivity score for Cn1c(=O)[nH]c2ncn(C)c2c1=O [paraxanthine] , thanks.
0

Let me know recorded drug sensitivity score for CCOCCn1c(N2CCCN(C)CC2)nc2ccccc21 [emedastine] , thanks.
0

Let me know recorded drug sensitivity score for c1cnc2cc3c(cc2n1)[C@@H]1CNC[C@H]3C1 [varenicline] , thanks.
0

---

Tested on: Calu-3
experiment_notes: cell viability relative to DMSO; higher = less toxic
setup_conditions: 72 h; 1 nM
recorded_metric: cell viability
State the value with its unit after it.

molecule	cell viability
Cc1ccc2c(c1)c1c3n2CCNC3CCC1 (centres undefined)	98.1%
Cn1c(=O)[nH]c2ncn(C)c2c1=O	94.9%
C=CCNc1ncnc2ccc(Br)cc12	101%
NC(=O)CN1CC(O)CC1=O (centres undefined)	101%
CC(C)=CCC[C@](C)(O)[C@@H]1CC=C(C)CC1	97.9%

Now look at this one.
Let me know recorded cell viability for CCOc1ccc(-c2ccc(Cn3c(CC(C)(C)C(=O)O)c(SC(C)(C)C)c4cc(OCc5ccc(C)cn5)ccc43)cc2)cn1 , thanks.
107%

---

Tested on: Calu-3
experiment_notes: cell viability relative to DMSO; higher = less toxic
setup_conditions: 72 h; 1000 nM
recorded_metric: cell viability (%)
Value expressed in %; do not type the unit.

Here is how some compounds turned out for cell viability.
compound	measurement_units	cell viability
CC(C)c1ccc2oc3nc(N)c(C(=O)O)cc3c(=O)c2c1	%	101
CCOc1ccc(Cc2cc([C@]34OC[C@](CO)(O3)[C@@H](O)[C@H](O)[C@H]4O)ccc2Cl)cc1	%	98.7
CC(C)(S)C(N)C(=O)O (stereo in doubt) [penicillamine-(racemic)]	%	106
C=CCNc1ncnc2ccc(Br)cc12	%	100
O=C1NC(c2ccccc2)(c2ccccc2)C(=O)N1COP(=O)(O)O	%	87.7

Let me know recorded cell viability for COc1cc2cc(c1Cl)N(C)C(=O)C[C@H](OC(=O)C(C)C)[C@]1(C)O[C@@H]1[C@H](C)[C@@H]1C[C@@](O)(NC(=O)O1)[C@H](OC)/C=C/C=C(\C)C2 , thanks.
37.4

Let me know recorded cell viability for CC[C@]1(O)C[C@H]2CN(CCc3c([nH]c4ccccc34)[C@@](C(=O)OC)(c3cc4c(cc3OC)N(C=O)[C@H]3[C@@](O)(C(=O)OC)[C@H](OC(C)=O)[C@]5(CC)C=CCN6CC[C@]43[C@@H]65)C2)C1 [Vincristine (sulfate)] , thanks.
39.6

Let me know recorded cell viability for C#C[C@]1(O)CC[C@H]2[C@@H]3CCc4cc(O)ccc4[C@H]3CC[C@@]21C , thanks.
94.3

Let me know recorded cell viability for c1ccc2c(c1)OC[C@H](CNCCCOc1ccc3c(c1)OCO3)O2 , thanks.
108

Let me know recorded cell viability for COc1ccc(C(CN(C)C)C2(O)CCCCC2)cc1 (stereo not drawn) , thanks.
99.9

Let me know recorded cell viability for CC(=O)OCC(=O)[C@@]1(O)CC[C@H]2[C@@H]3CCC4=CC(=O)CC[C@]4(C)[C@H]3[C@@H](O)C[C@@]21C [hydrocortisone-acetate] , thanks.
96.8

Let me know recorded cell viability for O=C1NCC2(CCN(CCc3ccccc3)CC2)O1 [fenspiride] , thanks.
92.3

---

Tested on: A549-ACE2
experiment_notes: drug-induced phospholipidosis relative to tamoxifen; higher = more phospholipidosis
setup_conditions: 30 µM; 24 h
Given measured drug-induced phospholipidosis, output YES if it is greater than or equal to 50% and NO if not.

Below, 4 compounds whose answers are already recorded.
molecular_string	tested_on	discrete_label
O=C(Nc1ncc(SCCN2CCCC2)s1)[C@]1(c2ccc(S(=O)(=O)C3CC3)cc2)C[C@H]1C1CCCCC1	A549-ACE2	YES
O=C(O)CCCCCCCC(=O)O	A549-ACE2	NO
C[C@@H](NCCCc1cccc(C(F)(F)F)c1)c1cccc2ccccc12	A549-ACE2	YES
CCSc1ccc2c(c1)N(CCCN1CCN(C)CC1)c1ccccc1S2	A549-ACE2	YES

Hi team, for C[C@@H]1COCCN1c1cc(=O)n2c(n1)N(Cc1cncc(Cl)c1)[C@H](C(F)(F)F)CC2 , is the recorded drug-induced phospholipidosis at or above 50%?
NO

---

Below, each entry is listed with its recorded cell viability.
Test system: Vero E6
experiment_notes: cell viability relative to DMSO; higher = less toxic
setup_conditions: 72 h; 1 nM
Value expressed in %; do not type the unit.

Here is how some molecules turned out for cell viability.
molecule	measurement_units	cell viability
N[C@@H](Cc1ccc(O)cc1)C(=O)NCC(=O)NCC(=O)O [IMREG-1]	%	90.7
CCOC(=O)C1=C(N)Oc2ccc(Br)cc2C1C(C#N)C(=O)OCC (stereo not drawn) [HA-14-1]	%	93

Let me know recorded cell viability for C#C[C@]1(O)CC[C@H]2[C@@H]3CCc4cc(O)ccc4[C@H]3CC[C@@]21C [ETHINYL ESTRADIOL] , thanks.
97.7

Let me know recorded cell viability for O=C(O)[C@H](O)[C@@H](O)[C@H](O[C@@H]1O[C@H](CO)[C@H](O)[C@H](O)[C@H]1O)[C@H](O)CO [maltobionic-acid] , thanks.
94.3

Let me know recorded cell viability for CO/N=C(\C(=O)N[C@@H]1C(=O)N2C(C(=O)O)=C(COC(N)=O)CS[C@H]12)c1ccco1 [CEFUROXIME SODIUM] , thanks.
101

Let me know recorded cell viability for O=C(O)CCCc1c[nH]c2ccccc12 [3-indolebutyric-acid] , thanks.
102

Let me know recorded cell viability for CCC(=O)O[C@]1(C(=O)COC(C)=O)CC[C@H]2[C@@H]3C[C@H](C)C4=CC(=O)C=C[C@]4(C)[C@H]3[C@@H](O)C[C@@]21C [methylprednisolone-aceponate] , thanks.
88

Let me know recorded cell viability for OCc1ccc(CO)o1 [2,5-furandimethanol] , thanks.
97.1

---

Tested on: Caco-2
experiment_notes: cell viability relative to DMSO; higher = less toxic
setup_conditions: 72 h; 1 nM
Below, each entry is listed with its recorded cell viability.
Value expressed in %; do not type the unit.

compound	tested_on	measurement_units	cell viability
C=C(c1ccccc1OCc1cccc(Cl)c1)n1ccnc1	Caco-2	%	102
O=C(O)c1cc2ccccc2s1	Caco-2	%	97.7
O=C(O)c1cc(O)c2c(c1)[C@H]([C@H]1c3cc(C(=O)O)cc(O)c3C(=O)c3c(O[C@@H]4O[C@H](CO)[C@@H](O)[C@H](O)[C@H]4O)cccc31)c1cccc(O[C@@H]3O[C@H](CO)[C@@H](O)[C@H](O)[C@H]3O)c1C2=O [sennoside-A]	Caco-2	%	79.8
c1cnc2cc3c(cc2n1)[C@@H]1CNC[C@H]3C1	Caco-2	%	95.4
CC(C)NCCCn1c(Sc2cc3c(cc2I)OCO3)nc2c(N)ncnc21	Caco-2	%	89.9

Let me know recorded cell viability for O/N=C/c1ccc(-c2ccc(O)c(F)c2)c(Cl)c1O , thanks.
98.1

Let me know recorded cell viability for C=CC(=O)Nc1cc2c(Nc3ccc(F)c(Cl)c3)ncnc2cc1OCCCN1CCOCC1 , thanks.
91.7

Let me know recorded cell viability for O=C(c1cccc(Cl)c1F)N1CCN(Cc2cccc(Nc3nccs3)n2)CC1 , thanks.
92.1

Let me know recorded cell viability for CSc1ccc(C(=O)c2[nH]c(=O)[nH]c2C)cc1 , thanks.
92.8

---

System: HepG2
experiment_notes: cell viability relative to DMSO; higher = less toxic
setup_conditions: 72 h; 1000 nM
Below, each entry is listed with its recorded cell viability.
Value expressed in %; do not type the unit.

Here is how some molecules turned out for cell viability.
molecule	recorded_measurement
OCCCNc1ccccc1 [3-anilinopropan-1-ol]	103
C[C@H](CCC(=O)O)[C@H]1CC[C@H]2[C@@H]3C(=O)C[C@@H]4CC(=O)CC[C@]4(C)[C@H]3CC(=O)[C@]12C [dehydrocholate-acid]	103

Let me know recorded cell viability for O=C(CC(c1ccccc1)c1ccccc1)N1CCN(C(c2ccccc2)c2ccccc2)CC1 [Z160] , thanks.
95.6

Let me know recorded cell viability for Clc1cccc(SC2CCNCC2)n1 [anpirtoline] , thanks.
104

Let me know recorded cell viability for Nc1ncnc2c1ncn2[C@@H]1O[C@H](CO)[C@@H](O)[C@H]1O [adenosine] , thanks.
110
